test system: E. aerogenes; assay: Susceptibility testing (MIC, modified NCCLS method); format: cell-based, Enterobacter aerogenes; conditions: E. aerogenes ATCC 35028
Overview of recorded MIC for various compounds

| compound | relation | MIC (µg/mL) |
| --- | --- | --- |
| O=C(Cn1cnnn1)Nc1ncc(CC(=O)NC2C(=O)N3C(C(=O)O)=C(COc4cc(Cl)ccc4Oc4ccc(Cl)cc4Cl)CS[C@H]23)s1 (stereo partly shown) | = | 32 |
| CON=C(C(=O)NC1C(=O)N2C(C(=O)O)=C(COc3cc(Cl)ccc3Oc3ccc(Cl)cc3Cl)CSC12)c1csc(N)n1 (stereo not shown) | > | 32 |
| O=C(Cc1cccs1)NC1C(=O)N2C(C(=O)O)=C(C=CCOc3ccc(Cl)cc3C(=O)Nc3ccc(Cl)c(Cl)c3)CS[C@H]12 (stereo partly shown) | > | 32 |
| NC(C(=O)NC1C(=O)N2C(C(=O)O)=C(COc3cc(Cl)ccc3Oc3ccc(Cl)cc3Cl)CSC12)c1ccccc1 (stereo not shown) | = | 1.98 |

###

system: E. coli C(Tem4O-15); experiment: Inhibition of bacterial growth (IC50, OD600); type: cell-based; conditions: Escherichia coli, 10 h, read-out: IC50 10 hours

| smiles_representation | IC50 [nM] |
| --- | --- |
| O=C(Cc1cccs1)N[C@@H]1C(=O)N2C(C(=O)O)=C(COc3cc(Cl)ccc3Oc3ccc(Cl)cc3Cl)CS[C@H]12 | 1.62 |
